- Tested on: TK-10
- Assay Name: minimum viability across doses, drug + dasatinib, relative to DMSO (fraction); higher = less growth inhibition
- Measurement Conditions: treatment: drug + dasatinib (fixed dose, not stated); 5 days
Response field label takes met when minimum viability across doses is strictly below 0.3 and not met in all other cases.

Example results:
Ask | In plain terms, does Cc1ccc(-n2nc(C(C)(C)C)cc2NC(=O)Nc2ccc(OCCN3CCOCC3)c3ccccc23)cc1 [BIRB 796 (Doramapimod)] + Cc1nc(Nc2ncc(C(=O)Nc3c(C)cccc3Cl)s2)cc(N2CCN(CCO)CC2)n1 come in under 0.3 for minimum viability across doses?
Reply | not met

Ask | In plain terms, does Nc1ccc(-c2ccc3ncc4ccc(=O)n(-c5cccc(C(F)(F)F)c5)c4c3c2)cn1 [Torin 2] + Cc1nc(Nc2ncc(C(=O)Nc3c(C)cccc3Cl)s2)cc(N2CCN(CCO)CC2)n1 come in under 0.3 for minimum viability across doses?
Reply | met

Ask | In plain terms, does CNC(=O)c1ccccc1Nc1nc(Nc2ccc(N3CCOCC3)cc2OC)ncc1Cl [NVP-TAE226] + Cc1nc(Nc2ncc(C(=O)Nc3c(C)cccc3Cl)s2)cc(N2CCN(CCO)CC2)n1 come in under 0.3 for minimum viability across doses?
Reply | met

Ask | In plain terms, does CC(C)(C)Cn1c(N)nc2ccc(-c3[nH]c(C(C)(C)C)nc3-c3ccc(F)cc3)nc21.CS(=O)(=O)O.CS(=O)(=O)O + Cc1nc(Nc2ncc(C(=O)Nc3c(C)cccc3Cl)s2)cc(N2CCN(CCO)CC2)n1 come in under 0.3 for minimum viability across doses?
Reply | not met

Ask | In plain terms, does CCN(CC)CCCCNc1ncc2cc(-c3cc(OC)cc(OC)c3)c(NC(=O)NC(C)(C)C)nc2n1 + Cc1nc(Nc2ncc(C(=O)Nc3c(C)cccc3Cl)s2)cc(N2CCN(CCO)CC2)n1 come in under 0.3 for minimum viability across doses?
Reply | met

Ask | In plain terms, does CO[C@H]1C[C@@H]2CC[C@@H](C)[C@@](O)(O2)C(=O)C(=O)N2CCCC[C@H]2C(=O)O[C@H]([C@H](C)C[C@@H]2CC[C@@H](OCCO)[C@H](OC)C2)CC(=O)[C@H](C)/C=C(\C)[C@@H](O)[C@@H](OC)C(=O)[C@H](C)C[C@H](C)/C=C/C=C/C=C/1C [Everolimus (RAD001)] + Cc1nc(Nc2ncc(C(=O)Nc3c(C)cccc3Cl)s2)cc(N2CCN(CCO)CC2)n1 come in under 0.3 for minimum viability across doses?
Reply | not met

Ask | In plain terms, does CO[C@H]1C[C@H]2CC[C@@H](C)[C@@](O)(O2)C(=O)C(=O)N2CCCC[C@H]2C(=O)O[C@H]([C@H](C)C[C@@H]2CC[C@H](OP(C)(C)=O)[C@H](OC)C2)CC(=O)[C@H](C)/C=C(\C)[C@@H](O)[C@@H](OC)C(=O)[C@H](C)C[C@H](C)/C=C/C=C/C=C/1C (stereo in doubt) [Deforolimus (Ridaforolimus)] + Cc1nc(Nc2ncc(C(=O)Nc3c(C)cccc3Cl)s2)cc(N2CCN(CCO)CC2)n1 come in under 0.3 for minimum viability across doses?
Reply | not met

Ask | In plain terms, does COc1ccc(COc2cc3oc(=O)c4cc(C(C)O)ccc4c3cc2OC)cc1 (stereo not given) [Palomid 529] + Cc1nc(Nc2ncc(C(=O)Nc3c(C)cccc3Cl)s2)cc(N2CCN(CCO)CC2)n1 come in under 0.3 for minimum viability across doses?
Reply | not met

Ask | In plain terms, does CS(=O)(=O)O.Cc1ccc(NC(=O)c2ccc(CN3CCN(C)CC3)cc2)cc1Nc1nccc(-c2cccnc2)n1 [Imatinib Mesylate] + Cc1nc(Nc2ncc(C(=O)Nc3c(C)cccc3Cl)s2)cc(N2CCN(CCO)CC2)n1 come in under 0.3 for minimum viability across doses?
Reply | not met

Ask | In plain terms, does CN1CCN(CCOc2cc(OC3CCOCC3)c3c(Nc4c(Cl)ccc5c4OCO5)ncnc3c2)CC1 [Saracatinib (AZD0530)] + Cc1nc(Nc2ncc(C(=O)Nc3c(C)cccc3Cl)s2)cc(N2CCN(CCO)CC2)n1 come in under 0.3 for minimum viability across doses?
Reply | met

New cases:
Ask | In plain terms, does O=C1NC(=O)/C(=C/c2ccc3nccnc3c2)S1 + Cc1nc(Nc2ncc(C(=O)Nc3c(C)cccc3Cl)s2)cc(N2CCN(CCO)CC2)n1 come in under 0.3 for minimum viability across doses?
Reply | not met

Ask | In plain terms, does Oc1cccc(-c2nc(N3CCOCC3)c3oc4ncccc4c3n2)c1 [PI-103] + Cc1nc(Nc2ncc(C(=O)Nc3c(C)cccc3Cl)s2)cc(N2CCN(CCO)CC2)n1 come in under 0.3 for minimum viability across doses?
Reply | met

Ask | In plain terms, does Cc1csc(-c2nnc(Nc3ccc(Oc4ncccc4-c4ccnc(N)n4)cc3)c3ccccc23)c1 [AMG 900] + Cc1nc(Nc2ncc(C(=O)Nc3c(C)cccc3Cl)s2)cc(N2CCN(CCO)CC2)n1 come in under 0.3 for minimum viability across doses?
Reply | not met

Ask | In plain terms, does Cc1ccc(NC(=O)c2cccc(C(C)(C)C#N)c2)cc1Nc1ccc2ncn(C)c(=O)c2c1 [AZ628] + Cc1nc(Nc2ncc(C(=O)Nc3c(C)cccc3Cl)s2)cc(N2CCN(CCO)CC2)n1 come in under 0.3 for minimum viability across doses?
Reply | not met
